Measured relative viability of individual entries
# Tested on: HOP-62
# PROTOCOL NOTES: relative viability (nuclei count vs DMSO), 5 days (fraction); higher = more cells survive
# CONDITION DETAILS: first compound 0.05 µM
ASSAY METRIC: relative viability

>  <COMPOUND>
COc1cc2nccc(Oc3ccc(NC(=O)Nc4cc(C)on4)c(Cl)c3)c2cc1OC [Tivozanib] + CS(=O)(=O)CCNCc1ccc(-c2ccc3ncnc(Nc4ccc(OCc5cccc(F)c5)c(Cl)c4)c3c2)o1 [Lapatinib] (partner 2 µM)

>  <READOUT VALUE>
0.994

$$$$
>  <COMPOUND>
Nc1ccn([C@@H]2O[C@H](CO)[C@@H](O)[C@@H]2O)c(=O)n1 [Cytarabine] + O=C(CCCCCCC(=O)Nc1ccccc1)NO [Vorinostat] (partner 1 µM)

>  <READOUT VALUE>
0.437

$$$$
>  <COMPOUND>
Nc1ccn([C@@H]2O[C@H](CO)[C@@H](O)[C@@H]2O)c(=O)n1 [Cytarabine] + C[C@@H](Oc1cc(-c2cnn(C3CCNCC3)c2)cnc1N)c1c(Cl)ccc(F)c1Cl [Crizotinib] (partner 1 µM)

>  <READOUT VALUE>
0.379

$$$$
>  <COMPOUND>
COc1cc2nccc(Oc3ccc(NC(=O)Nc4cc(C)on4)c(Cl)c3)c2cc1OC [Tivozanib] + NC(=O)Nc1cc(-c2cccc(F)c2)sc1C(=O)N[C@H]1CCCNC1 [AZD7762] (partner 0.2 µM)

>  <READOUT VALUE>
0.383

$$$$
>  <COMPOUND>
COc1cc2nccc(Oc3ccc(NC(=O)Nc4cc(C)on4)c(Cl)c3)c2cc1OC [Tivozanib] + CC(C)C[C@H](NC(=O)[C@H](Cc1ccccc1)NC(=O)c1cnccn1)B(O)O [Bortezomib] (partner 0.002 µM)

>  <READOUT VALUE>
0.548

$$$$
